# Tested on: Staphylococcus aureus
# ASSAY_DETAILS: Antimicrobial activity against Staphylococcus aureus after 24 hrs by broth microdilution method
# Assay type: functional
I'd appreciate it if you marked entries condition met when MIC is lower than 2 µg/mL and condition not met when it is not.

# SMILES_DATA, TESTED_ON, CATEGORY_LABEL
records = [
    ("CCCC[C@H](CN(O)C=O)C(=O)N1CC=C[C@H]1C(=O)Nc1ccccc1Br", "Staphylococcus aureus", "condition not met"),
    ("C=C1C[C@@H](C(=O)Nc2ccc(F)cc2)N(C(=O)[C@H](CCCC)CN(O)C=O)C1", "Staphylococcus aureus", "condition met"),
    ("CCCC[C@H](CN(O)C=O)C(=O)N1C[C@@H](C)C[C@H]1C(=O)Nc1ccc(F)c[n+]1[O-]", "Staphylococcus aureus", "condition met"),
    ("O=CN(O)C[C@@H](CC1CCCC1)C(=O)N1CC=C[C@H]1C(=O)Nc1ccc(F)cn1", "Staphylococcus aureus", "condition met"),
    ("CCCC[C@H](CN(O)C=O)C(=O)N1CC=C[C@H]1C(=O)Nc1ccccc1", "Staphylococcus aureus", "condition not met"),
]

Query: Report whether reported MIC is lower than 2 µg/mL (strictly) for C=C1C[C@@H](C(=O)Nc2ccc(F)c[n+]2[O-])N(C(=O)[C@H](CCCC)CN(O)C=O)C1
Response: condition met

Query: Report whether reported MIC is lower than 2 µg/mL (strictly) for CCCC[C@H](CN(O)C=O)C(=O)N1CC=C[C@H]1C(=O)Nc1ccccn1
Response: condition met

---

# ASSAY_DETAILS: Mean residence time (0 to t) in Sprague-Dawley rat at 25 mg/kg, po
# Type: ADME, organism-based
# Parameters: dose 25 mg/kg, route oral
# MEASUREMENT_CONDITIONS: in vivo
// reported MRT last per item

Consider the worked cases shown below.
# SMILES_DATA, MEASURED_METRIC, ENDPOINT_RESULT
rows = [
    ("Cc1cnc(NC(=O)[C@@H]2C=CCN2C(=O)[C@H](CC2CCCC2)CN(O)C=O)s1", "MRT last", "3.39 h"),
    ("CCCC[C@H](CN(O)C=O)C(=O)N1CC=C[C@H]1C(=O)Nc1ccc(F)c[n+]1[O-]", "MRT last", "2.34 h"),
]

Query: Quick one: MRT last for C=C1C[C@@H](C(=O)Nc2ncc(C)s2)N(C(=O)[C@H](CCCC)CN(O)C=O)C1 ?
Response: 3.41 h

Query: Quick one: MRT last for O=CN(O)C[C@@H](CC1CCCC1)C(=O)N1CC=C[C@H]1C(=O)Nc1ccc(F)c[n+]1[O-] ?
Response: 2.01 h

Query: Quick one: MRT last for CCCC[C@H](CN(O)C=O)C(=O)N1CC=C[C@H]1C(=O)Nc1ncc(C)s1 ?
Response: 2.45 h

---

// reported log10(MIC) per item
# Tested on: Staphylococcus epidermidis
# ASSAY_DETAILS: Antimicrobial activity against Staphylococcus epidermidis after 24 hrs by broth microdilution method
# Assay type: functional
Response schema: value (number) is log10 of MIC in units of µg/mL.

# SMILES_DATA, MEASURED_METRIC, ENDPOINT_RESULT
measured = [
    ("CCCC[C@H](CN(O)C=O)C(=O)N1CC=C[C@H]1C(=O)N[C@@H](C)c1ccccc1", "log10(MIC)", 0.90),
    ("CCCC[C@H](CN(O)C=O)C(=O)N1CC=C[C@H]1C(=O)N[C@H](C)c1ccccc1", "log10(MIC)", 0.60),
    ("CCCC[C@H](CN(O)C=O)C(=O)N1CC=C[C@H]1C(=O)Nc1ccccn1", "log10(MIC)", -0.30),
]

Query: Quick one: log10(MIC) for Cc1cnc(NC(=O)[C@@H]2C=CCN2C(=O)[C@H](CC2CCCC2)CN(O)C=O)s1 ?
Response: -1.20

Query: Quick one: log10(MIC) for O=CN(O)C[C@@H](CC1CCCC1)C(=O)N1CC=C[C@H]1C(=O)Nc1ccccc1 ?
Response: -0.30

Query: Quick one: log10(MIC) for C=C1C[C@@H](C(=O)N2CCOCC2)N(C(=O)[C@H](CCCC)CN(O)C=O)C1 ?
Response: 0.90

Query: Quick one: log10(MIC) for CCCC[C@H](CN(O)C=O)C(=O)N1CC=C[C@H]1C(=O)Nc1cccc(Br)c1 ?
Response: 0.00

Query: Quick one: log10(MIC) for C=C1C[C@@H](C(=O)Nc2ccc(F)cc2)N(C(=O)[C@H](CCCC)CN(O)C=O)C1 ?
Response: -0.30

Query: Quick one: log10(MIC) for CCCC[C@H](CN(O)C=O)C(=O)N1CC=C[C@H]1C(=O)Nc1ccc(Br)cc1 ?
Response: 0.30

Query: Quick one: log10(MIC) for O=C(O)c1cn(C2CC2)c2cc(N3CCNCC3)c(F)cc2c1=O ?
Response: -0.60

Query: Quick one: log10(MIC) for O=CN(O)C[C@@H](CC1CCCC1)C(=O)N1CC=C[C@H]1C(=O)Nc1ccc(F)cc1 ?
Response: 0.00

Query: Quick one: log10(MIC) for CCCC[C@H](CN(O)C=O)C(=O)N1CC=C[C@H]1C(=O)Nc1ccccc1Br ?
Response: 0.90

Query: Quick one: log10(MIC) for CC1(C)S[C@@H]2[C@H](NC(=O)Cc3ccccc3)C(=O)N2[C@H]1C(=O)O ?
Response: 0.30

Query: Quick one: log10(MIC) for CCCC[C@H](CN(O)C=O)C(=O)N1CC=C[C@H]1C(=O)Nc1ccc(OC)cc1 ?
Response: 0.30
